test system: corn; test: Drought resistance in seed-coated corn; type: in vivo; conditions: corn seed treatment 0.12 μg/seed, vs mock
For each of the substances below, state its % Change Fresh Weight.
Answers are plain numbers, in %.

Batch of 2 substances: report % Change Fresh Weight for each.
1. AGQTSGMSPMEQLMEIFADITQSLFGDR (P13-58 peptide) [Peptide P13-58]
2. P13-49: P13 peptide variant tested in corn seed treatment, SEQ ID NO: 71; sequence not printed in the text (AGQTSGMSPMEQEMKIFADITQSLFGDQDG; P13-49 peptide) [Peptide P13-49]

OUTPUT:
1. −4.07
2. −4.24

INPUT: I would be grateful if you could share the reported % Change Fresh Weight for P13-50: P13 peptide variant tested in corn seed treatment, SEQ ID NO: 72; sequence not printed in the text (AGQTSGMSPMEQLEKIFADITQSLFGDQDG; P13-50 peptide) [Peptide P13-50] .
OUTPUT: −3.95
